Biological target: HDAC1 (Homo sapiens, UniProt Q13547)
Construct: purchased BPS Bioscience 50051
Sequence (Q13547 whole entry): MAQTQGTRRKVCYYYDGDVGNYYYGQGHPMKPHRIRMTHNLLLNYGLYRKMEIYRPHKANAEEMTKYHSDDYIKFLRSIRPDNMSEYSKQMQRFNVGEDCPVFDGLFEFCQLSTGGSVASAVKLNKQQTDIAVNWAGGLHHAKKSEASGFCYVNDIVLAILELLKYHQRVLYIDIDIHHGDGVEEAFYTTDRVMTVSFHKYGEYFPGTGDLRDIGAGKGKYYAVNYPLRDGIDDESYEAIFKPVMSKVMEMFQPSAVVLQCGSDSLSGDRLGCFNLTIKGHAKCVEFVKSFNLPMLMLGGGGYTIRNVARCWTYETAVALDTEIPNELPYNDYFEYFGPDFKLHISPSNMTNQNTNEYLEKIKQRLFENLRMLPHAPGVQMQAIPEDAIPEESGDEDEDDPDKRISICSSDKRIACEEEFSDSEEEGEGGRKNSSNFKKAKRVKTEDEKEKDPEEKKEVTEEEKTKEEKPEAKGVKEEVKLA
Test: HDAC-Glo I/II assay, HDAC1
Assay type: biochemical
Details: recombinant human HDAC1, HDAC-Glo; read-out: pIC50 HDAC1 Glo (converted)
test.readout: IC50 (µM)

[
  {
    "compound.string": "CN(CCCC(=O)NO)CCNC(=O)c1cccc2cn[nH]c12",
    "experimental.value": 10
  },
  {
    "compound.string": "CN(CCCC(=O)NO)CCNC(=O)c1ccc2cn[nH]c2c1",
    "experimental.value": 7.94
  },
  {
    "compound.string": "Cc1[nH]c2ccccc2c1CC(=O)NCCN(C)CCCC(=O)NO",
    "experimental.value": 10
  }
]

[a] CN(CCCC(=O)NO)CCNC(=O)c1ccc(N)cc1
[b] CN(CCCC(=O)NO)CCNC(=O)c1ccc2ccccc2c1
// task: argmin of IC50 over [ a , b ] Field: selected label. Fill in the label of the entry you choose.
b
(b: 2.51 µM, a: 15.8 µM)

Source of measurements: patent US20220151962A1
